# Test System: LCAT (Homo sapiens)
# Construct: The obtained fraction was dialyzed against phosphate-buffered saline (pH 7.4) and used as an enzyme source and an acceptor for LCAT
# Sequence (P04180 25-440): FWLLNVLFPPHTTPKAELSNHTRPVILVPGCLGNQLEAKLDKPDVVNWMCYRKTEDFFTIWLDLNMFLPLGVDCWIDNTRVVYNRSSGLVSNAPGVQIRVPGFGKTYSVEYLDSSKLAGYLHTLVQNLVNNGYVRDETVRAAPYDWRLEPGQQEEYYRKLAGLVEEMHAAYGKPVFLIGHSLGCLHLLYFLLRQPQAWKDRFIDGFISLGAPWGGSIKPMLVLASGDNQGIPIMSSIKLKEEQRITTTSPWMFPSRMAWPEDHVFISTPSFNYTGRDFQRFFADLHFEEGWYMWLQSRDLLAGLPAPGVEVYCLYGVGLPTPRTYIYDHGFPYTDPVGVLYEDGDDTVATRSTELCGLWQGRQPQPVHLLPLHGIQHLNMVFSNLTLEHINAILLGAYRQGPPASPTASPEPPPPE
# Assay Overview: LCAT activity measurement (in vitro), [14C]cholesterol esterification with HDL3 fraction
# Condition Description: HDL3 fraction from plasma of a healthy person as enzyme source and acceptor; 37° C., approximately 16 hours; relative to sample without test drug; read-out: EC50 of LCAT activation
pEC50: −log10 of the molar value.
Metric Name: pEC50

Use these answered entries as a reference point.
molecule O=C1Nc2[nH]nc(C3CCN(c4cnc(C(F)(F)F)cn4)CC3)c2[C@@H](C(F)(F)F)[C@H]1O (racemic) [Example 11] , pEC50 observed: 7.54

molecule N#Cc1cncc(N2CCC(c3n[nH]c4c3[C@@H](C(F)(F)F)[C@@H](O)C(=O)N4)CC2)c1 (single isomer, unassigned) [Example 31] , pEC50 observed: 7.47

molecule O=C1Nc2[nH]nc(C3CCN(c4cnc(C(F)(F)F)cn4)CC3)c2[C@@H](C(F)(F)F)[C@H]1O (single isomer, unassigned) [Example 18] , pEC50 observed: 8.05

molecule O=C1Nc2[nH]nc(C3CCN(c4cncc(C(F)(F)F)c4)CC3)c2[C@@H](C(F)(F)F)[C@H]1O (single isomer, unassigned) [Example 38] , pEC50 observed: 7.62

molecule O=C1Nc2[nH]nc(C3CCN(c4cccc(C(F)(F)F)n4)CC3)c2[C@@H](C(F)(F)F)[C@H]1O (racemic) [Example 16] , pEC50 observed: 7.21

molecule Cc1cc(N2CCC(c3n[nH]c4c3[C@@H](C(F)(F)F)[C@@H](O)C(=O)N4)CC2)cnc1C#N (single isomer, unassigned) [Example 27] , pEC50 observed: 7.43

molecule O=C1Nc2[nH]nc(C3CCN(c4ccc(C(F)(F)F)cn4)CC3)c2C(O)(C(F)(F)F)C1O (single isomer, unassigned; (+)) [Example 35] , pEC50 observed: 8.15

molecule O=C(OCc1ccccc1)c1cc(N2CCC(c3n[nH]c4c3[C@@H](C(F)(F)F)[C@@H](O)C(=O)N4)CC2)ncc1C(F)(F)F (single isomer, unassigned) [Example 32] , pEC50 observed: 8.15

molecule O=C1Nc2[nH]nc(C3CCN(c4ccnc(C(F)(F)F)n4)CC3)c2[C@@H](C(F)(F)F)[C@H]1O (single isomer, unassigned) [Example 25] , pEC50 observed: 7.00

molecule N#Cc1cnc(N2CCC(c3n[nH]c4c3[C@@H](C(F)(F)F)[C@@H](O)C(=O)N4)CC2)cc1C(F)(F)F (racemic) [Example 13] , pEC50 observed: 7.43

[P] O=C1Nc2[nH]nc(C3CCN(c4ccc(C(F)(F)F)cn4)CC3)c2[C@@H](C(F)(F)F)[C@@H]1O (racemic) [Example 1]
[Q] CC(C)Oc1ccc(N2CCC(c3n[nH]c4c3[C@@H](C(F)(F)F)[C@@H](O)C(=O)N4)CC2)cn1 (single isomer, unassigned) [Example 39]
[R] CC(C)Oc1ccc(N2CCC(c3n[nH]c4c3[C@@H](C(F)(F)F)[C@@H](O)C(=O)N4)CC2)nn1 (single isomer, unassigned) [Example 41]
[S] O=C1Nc2[nH]nc(C3CCN(c4ccc(-c5ccccc5)nn4)CC3)c2[C@@H](C(F)(F)F)[C@H]1O (single isomer, unassigned) [Example 29]
[T] O=C1Nc2[nH]nc(C3CCN(c4cnc(C(F)(F)F)nc4)CC3)c2[C@@H](C(F)(F)F)[C@H]1O (single isomer, unassigned) [Example 21]
Rank descending by pEC50. Would you mind listing the labels in the order requested?
S, T, R, Q, P
(S: 7.96, T: 7.74, R: 7.46, Q: 7.04, P: 6.06)

[1] O=C1Nc2[nH]nc(C3CCN(c4ccc(C(F)(F)F)nn4)CC3)c2[C@@H](C(F)(F)F)[C@H]1O (racemic) [Example 7]
[2] O=C1Nc2[nH]nc(C3CCN(c4cc(C(F)(F)F)ccn4)CC3)c2[C@@H](C(F)(F)F)[C@H]1O (racemic) [Example 17]
[3] O=C1Nc2[nH]nc(C3CCN(c4ccc(C(F)(F)F)cn4)CC3)c2[C@@H](C(F)(F)F)[C@H]1O (single isomer, unassigned) [Example 3]
Rank descending by pEC50. Would you mind listing the labels in the order requested?
3, 2, 1
(3: 7.89, 2: 7.51, 1: 6.96)

[a] O=C1Nc2[nH]nc(C3CCN(c4ccc(C(F)(F)F)nn4)CC3)c2[C@@H](C(F)(F)F)[C@H]1O (single isomer, unassigned) [Example 19]
[b] O=C1Nc2[nH]nc(C3CCN(c4cc(C(F)(F)F)ncn4)CC3)c2[C@@H](C(F)(F)F)[C@H]1O (single isomer, unassigned) [Example 30]
Which has the smaller recorded pEC50, a or b ? Give the chosen item's label as your response.
b
(b: 7.20, a: 7.46)

[1] O=C1Nc2[nH]nc(C3CCN(c4ccc(C(F)(F)F)nc4)CC3)c2[C@@H](C(F)(F)F)[C@H]1O (single isomer, unassigned) [Example 23]
[2] CC(C)c1nc(N2CCC(c3n[nH]c4c3[C@@H](C(F)(F)F)[C@@H](O)C(=O)N4)CC2)cc(C(F)(F)F)n1 (racemic) [Example 9]
[3] CC(C)Oc1ccc(N2CCC(c3n[nH]c4c3[C@@H](C(F)(F)F)[C@@H](O)C(=O)N4)CC2)nc1 (racemic) [Example 5]
[4] O=C1Nc2[nH]nc(C3CCN(c4ccc(C(F)(F)F)nn4)CC3)c2[C@@H](C(F)(F)F)[C@@H]1O (racemic) [Example 6]
Rank descending by pEC50. Would you mind listing the labels in the order requested?
1, 2, 3, 4
(1: 8.10, 2: 7.57, 3: 6.80, 4: 5.65)
